Test system: Trypanosoma cruzi amastigotes cultured in 3T3 fibroblast cells
Experiment: Assay for growth inhibition of kinetoplastid parasite Trypanosoma cruzi (beta-galactosidase Tulahuen strain, CPRG readout)
Type: cell-based
Conditions: Trypanosoma cruzi, Fibroblast, T. cruzi amastigotes in 3T3 fibroblast cells; read-out: Buckner infectious T. cruzi EC50
As shown below, each of these compounds has a reported EC50 value.
Lab book: enter the figure in nM, no units written.

• CN(C)c1cnc2nn(-c3cc(NC(=O)N4CC(F)(F)C4)ccc3F)cc2c1 = 9.8
• CC(C)CCc1cnc2nn(-c3cc(NC(=O)c4ccco4)ccc3F)cc2c1 = 14
• CC(C)c1cnc2nn(-c3cc(NC(=O)N(C)C)ccc3F)cc2c1 = 10
• CC(C)c1cnc2nn(-c3cc(NC(=O)C4CCCCO4)ccc3F)cc2c1 (stereo not drawn) = 92
• CC(C)c1cnc2nn(-c3cc(NC(=O)CC(F)(F)F)ccc3F)cc2c1 = 1750

Entry under test: "O=C(Nc1ccc(F)c(-n2cc3cc(N4C5COCC4C5)cnc3n2)c1)N1CC(F)C1" . Its EC50 was 45

Entry under test: "O=C(Nc1ccc(F)c(-n2cc3cc(-c4ncccc4F)cnc3n2)c1)N1CC[C@@H](F)C1" . Its EC50 was 1

Entry under test: "O=C(Nc1ccc(F)c(-n2cc3cc(N4CC5(CCOC5)C4)cnc3n2)c1)N1CC2(CCOC2)C1" . Its EC50 was 2840

Entry under test: "CC(C)(C)Cc1cnc2nn(-c3cc(NC(=O)c4ccco4)ccc3F)cc2c1" . Its EC50 was 4.7
